Target: T1, Human β-cardiac mutant myosin S2 peptide (E924K), 19 residues (human, also: in FRET: FITC on N-terminus of one monomer, terbium-DTPA-cytosine chelate on C-terminal Lys of the other)
T1 construct: E924K already in the entry; also called Cardiac Myosin S2 Mutant, E924K
T1 peptide: EMNKRLEDEEEMNAELTAK
Assay: FRET donor lifetime of 0.1 µM labelled S2 peptide dimer titrated with stabilizer
Where no end group is shown, it is not given here.
measured.metric: Kd (nM)

>  <binder>
KKKKKKKKFKAKKKKKK (also called stabilizing peptide; unlabeled stabilizer) [Stabilizer peptide]

>  <measured.metric>
Kd

>  <value.reported>
34

$$$$
